tested on: NCI-H23; experiment: NCI tumour cell line growth inhibition, 48 h
Activity calls are given as the source filed them. Rule as the data show it: active = GI50 up to about 1.1 µM and inactive = higher.
Below, each entry is listed alongside its reported GI50.

| compound | result |
| --- | --- |
| N=C(N)SCCON1C(=O)c2ccccc2C1=O | > 100 µM (inactive) |
| Cc1ccc(C2COc3cc(O)c(O)cc3C2)cc1 (stereo unspecified) | 23.4 µM (inactive) |
| CC(=O)c1c2c(cc3c1CC1(C3)Cc3cc4c(c(C(=O)O)c3C1)CCCC4)CCCC2.CC(N)c1ccccc1 (stereo unspecified) | 42 µM (inactive) |
| COP(=O)(OC)C(NC(=O)C(F)(F)F)(c1ccccc1)C(F)(F)F (stereo unspecified) | > 100 µM (inactive) |
| CCOC(=O)c1c(CN2CCNCC2)nc2ccc(Cl)cc2c1-c1ccccc1 | 10.4 µM (inactive) |

Prompt line: Output measured GI50 for this item: "COc1ccc(C(=O)/C=C/c2ccc(OCC(=N)N)cc2)cc1OC"
Response line: 3.33 µM (inactive)

Prompt line: Output measured GI50 for this item: "O=[N+]([O-])c1ccc(-c2nnc(C34CC5CC(CC(C5)C3)C4)o2)cc1"
Response line: > 100 µM (inactive)

Prompt line: Output measured GI50 for this item: "CCOC(=O)c1[nH]c2c(OC)n[n+]([O-])cc2c1[N+](=O)[O-]"
Response line: 10 µM (inactive)

Prompt line: Output measured GI50 for this item: COc1ccccc1/C=C\C(=O)C1COCN1 (stereo unspecified)
Response line: > 100 µM (inactive)

Prompt line: Output measured GI50 for this item: O=C1C2CCC(C2)C12CC1(c3ccccc3)C(=O)c3ccccc3N1O2 (stereo unspecified)
Response line: > 100 µM (inactive)

Prompt line: Output measured GI50 for this item: "C[C@@]12C[C@@H](c3ccccc3O1)N1CCSC1=N2"
Response line: > 100 µM (inactive)

---

system: DMS-273; assay: NCI tumour cell line growth inhibition, 48 h
Activity calls are given as the source filed them. No stated cut-off is given here; in the data, active = GI50 up to about 1.1 µM and inactive = higher.
Below, each entry is listed alongside its reported GI50.

Please review the entries below; each comes with its answer.
| smilesInput | GI50 |
| --- | --- |
| COc1ccc(/C=C/c2cc(OC)c(OC)c(OC)c2)cc1OC | > 82.2 µM (inactive) |
| Cc1ccc(/C=C/C(=O)c2cccc3ccccc23)cc1 | 19 µM (inactive) |

Next compound, GI50 to be filled in.
Prompt line: Supply GI50 measured with DMS-273 for "CN(C)CC(C)(C)/C(=N\Nc1ccccc1)c1ccccc1" .
Response line: 33.5 µM (inactive)

---

test system: UACC-257; experiment: NCI tumour cell line growth inhibition, 48 h
Calls of active or inactive are those of the source. No stated cut-off is given here; in the data, active = GI50 up to about 1.1 µM and inactive = higher.
Please reply with one of these outcomes: T for active, F for inactive

Example entries begin here.
| molecule | qualitativeLabel |
| --- | --- |
| CN(C)CC(C)(C)/C(=N\Nc1ccccc1)c1ccccc1 | F |
| CC(=O)OCC1OC(n2c3c(cc(C#N)c2=O)CCCCCC3)C(OC(C)=O)C(OC(C)=O)C1OC(C)=O (stereo unspecified) | F |
| O=C(Cn1c2c(c3ccccc31)CCCC2)N1CCOCC1 | F |
| COc1ncnc2c1cnn2Cc1cn(CCCCO)nn1 | F |

Prompt line: Outcome? "Cc1ccc(NC(=O)CC/C(CC(=O)C(C)(C)C)=N\NC(=O)C[n+]2ccccc2)cc1C"
Response line: F

Prompt line: Outcome? "COc1ccc(CN/C=N/C(C#N)=C(\N)C#N)cc1OC"
Response line: F

Prompt line: Outcome? CCCC(Sc1nc(N)nc2nc[nH]c12)C(=O)O (stereo unspecified)
Response line: F

Prompt line: Outcome? COC(=O)C1CCC(=O)N1C(c1cc(OC)c(OC)c(OC)c1)c1cc(OC)c(OC)c(OC)c1 (stereo unspecified)
Response line: F

Prompt line: Outcome? COc1ccc(/C=C2\CCC(CNc3cc(C)on3)C2=O)cc1 (stereo unspecified)
Response line: F

Prompt line: Outcome? "Cc1ccc(-c2cn3c(nc4ccccc43)c(/C=C/c3ccco3)n2)cc1"
Response line: F

Prompt line: Outcome? C[n+]1c2ccccc2c(NC(CS)C(=O)O)c2ccccc21 (stereo unspecified)
Response line: F

Prompt line: Outcome? "CC(=O)Nc1ccc(-c2nnc(SCC(=O)Nc3cccc(Cl)c3)o2)cc1"
Response line: F

Prompt line: Outcome? "N#C/C(=C1\SCC(=O)N1c1ccccc1)c1nc2ccccc2[nH]1"
Response line: F

Prompt line: Outcome? "NC(=S)N1N=C2c3ccccc3CC[C@@H]2[C@@H]1c1ccccc1"
Response line: F

Prompt line: Outcome? "C/C(=N\NC(=S)N(C)C)c1ccccn1"
Response line: T

Prompt line: Outcome? "C=C1CN2CC(=C)CN(C1)CS(=O)(=O)N1CC(=C)CN(CC(=C)C1)S(=O)(=O)N1CC(=C)CN(CC(=C)C1)S(=O)(=O)C2"
Response line: F

Prompt line: Outcome? CCOC(=O)C1=C(C)N(NC(N)=O)C2(N)N(NC(N)=O)C(C)=C(C(=O)OCC)C12C#N (stereo unspecified)
Response line: F

Prompt line: Outcome? C[C@@H](NC1CCCC[C@@H]1O)c1ccccc1 (stereo partly specified)
Response line: F

Prompt line: Outcome? "COC(=O)c1nc(NC#N)nc(O)c1C"
Response line: F

Prompt line: Outcome? N#CC1=C(S)N(C2OC(CO)C(O)C(O)C2O)C(c2ccccc2)=CC1c1ccco1 (stereo unspecified)
Response line: F

Prompt line: Outcome? "COc1ccc(/C=C(/c2ccccc2)c2c(C)cc(C)c(/C(=C\c3ccc(OC)cc3)c3ccccc3)c2/N=N/c2cc(C)cc(C)c2)cc1"
Response line: F
